B1: glmS ribozyme (parent)
chain: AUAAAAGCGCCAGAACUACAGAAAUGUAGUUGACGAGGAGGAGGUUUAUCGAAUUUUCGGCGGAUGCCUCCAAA

Variants of: B1
Assay: self-cleavage kobs at 640 uM GlcN6P; higher = faster cleavage; RNA array
Details: with glucosamine-6-phosphate
Fewer inactive variants are shown than the library holds.
observable: self-cleavage kobs at 640 uM GlcN6P

{"residue-change": "C8U U56C", "self-cleavage kobs at 640 uM GlcN6P": "< 1e-05 s⁻¹"}

Dear colleague, could you please provide self-cleavage kobs at 640 uM GlcN6P for the variants listed below?
1. G9U U47G
2. G40C U65G
3. A39C G51A A64G
4. G40U A64U U65G C71G
5. G7C U47C
6. A42U U55A G60A C71G
7. G7C U31C G43C C50U

Data returned:
1. < 1e-05 s⁻¹
2. 9.16e-05 s⁻¹
3. < 1e-05 s⁻¹
4. < 1e-05 s⁻¹
5. < 1e-05 s⁻¹
6. < 1e-05 s⁻¹
7. < 1e-05 s⁻¹
